- TARGET UNDER TEST: LZK (Homo sapiens)
- Construct: 10 nM LZK, catalytic domain, Carna Biosiences in assay buffer; purchased Carna Biosciences ('Carna Biosiences' [sic])
- Sequence (O43283 168-409 limits assumed): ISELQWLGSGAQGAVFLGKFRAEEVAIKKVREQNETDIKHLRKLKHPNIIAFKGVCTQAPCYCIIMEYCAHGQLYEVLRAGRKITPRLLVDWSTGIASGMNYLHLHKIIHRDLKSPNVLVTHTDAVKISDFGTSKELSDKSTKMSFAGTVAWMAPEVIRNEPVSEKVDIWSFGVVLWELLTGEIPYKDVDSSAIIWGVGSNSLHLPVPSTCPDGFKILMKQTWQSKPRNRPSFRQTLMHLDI
- EXPERIMENT: LZK biochemical assay (TR-FRET, MKK7 phosphorylation)
- MEASUREMENT CONTEXT: LZK catalytic domain, MKK7 substrate, 15 μM ATP
pIC50: −log10 of the molar value.
READOUT NAME: pIC50

The cases that follow already have their pIC50 on record.
MOLECULE: CC[C@H](C)NC(=O)c1cc(-c2cnn(C3CCOc4ccccc43)c2)cc2nc(N)nn12 (single isomer, unassigned) [Example I-17]
REPORTED RESULT: 8.33

MOLECULE: CC[C@H](C)NC(=O)c1cc(-c2cnn([C@H](c3ccc(C(F)(F)F)nc3)C3CCN(C(=O)OC(C)(C)C)CC3)c2)cn2nc(N)nc12
REPORTED RESULT: 8.07

MOLECULE: COC[C@H](C)NC(=O)c1cc(-c2cnn(Cc3ccc(F)cc3)c2)cn2nc(N)nc12 (single isomer, unassigned)
REPORTED RESULT: 6.26

P. CC[C@@H](c1ccc(F)cc1)n1cc(-c2cc(C(=O)NC(C)CF)n3nc(N)nc3c2)cn1 (single isomer, unassigned) [Example I-149]
Q. CC[C@H](C)NC(=O)c1cc(-c2cnn(C(c3ccccc3)C(C)(C)C)c2)cn2nc(N)nc12 (single isomer, unassigned) [Example I-36]
R. CCC(c1ccc(C(F)F)nc1)n1cc(-c2cc(C(=O)N[C@@H](C)CC)c3nc(N)nn3c2)cn1 (single isomer, unassigned) [Example I-66]
S. CC(CF)NC(=O)c1cc(-c2cnn(C3CCOc4ccccc43)c2)cn2nc(N)nc12 (single isomer, unassigned) [Example I-145]
**Q:** Output the entries ranked by pIC50 from maximum down to minimum. Response format: the labels, sorted as the prompt asks.
**A:** R, P, S, Q

P. CC[C@H](C)NC(=O)c1cc(-c2cnn(C3CCN(CC4COC4)CC3)c2)cn2nc(N)nc12 (single isomer, unassigned)
Q. CC(C)C(c1cncc(Cl)c1)n1cc(-c2cc(C(=O)NC(C)(C)CO)c3nc(N)nn3c2)cn1 (single isomer, unassigned) [Example I-173]
R. CCC(c1ccc(OCC(F)(F)F)nc1)n1cc(-c2cc(C(=O)N[C@@H](C)CC)n3nc(N)nc3c2)cn1 (mixture of isomers) [Example I-113]
S. CC[C@H](C)NC(=O)c1cc(-c2cnn(C(c3ccc(C(F)(F)F)nc3)C3CCNCC3)c2)cn2nc(N)nc12 (single isomer, unassigned) [Example I-82]
T. CC[C@H](C)NC(=O)c1cc(-c2cnn(CC3CC3)c2)cn2nc(N)nc12
**Q:** Task field, ranking: reported pIC50, descending order. State the ranking by listing the labels in the requested order.
**A:** S, P, R, Q, T
(S: 9.30, P: 8.16, R: 7.92, Q: 7.31, T: 7.08)

###

- TARGET UNDER TEST: LZK (Homo sapiens)
- Construct: 10 nM LZK, catalytic domain, Carna Biosiences in assay buffer; purchased Carna Biosciences ('Carna Biosiences' [sic])
- EXPERIMENT: LZK biochemical assay (TR-FRET, MKK7 phosphorylation)
- MEASUREMENT CONTEXT: LZK catalytic domain, MKK7 substrate, 15 μM ATP
READOUT NAME: IC50 (nM)

1. CC[C@H](C)NC(=O)c1cc(-c2cnn(C(c3ccc(C(F)F)nc3)C3CC3)c2)cc2nc(N)nn12 (mixture of isomers) [Example I-98]
2. CC[C@H](C)NC(=O)c1cc(-c2cnn(C3CCCC3)c2)cc2nc(N)nn12 (single isomer, unassigned)
3. CCC(c1ccc(OC(F)(F)F)nc1)n1cc(-c2cc(C(=O)N[C@@H](C)CO)c3nc(N)nn3c2)cn1 (mixture of isomers) [Example I-157]
**Q:** Order all 3 entries above by recorded IC50, highest first, lowest last. Order the labels as requested and list them.
**A:** 2, 3, 1
